# test.details: Plasma pharmacokinetics of LP01 (LC-MS/MS) in HAE patients
# Assay type: in vivo, human
# condition.info: human, single dose IV infusion of NTLA-2002 25, 50 or 75 mg, range of cohort means, read-out: mean t1/2
parameter: half-life

[[record]]
compound = "CCCCC/C=C\\C/C=C\\CCCCCCCC(=O)OCC(COC(=O)CCC(OCCCCCCCC)OCCCCCCCC)COC(=O)OCCCN(CC)CC (stereo not shown)"
parameter = "half-life"
readout_value = "16.8 to 21.3 h"


From: patent US20260240959A1
